Cited source: ChEMBL document CHEMBL4602639

Below: a set of entries, each annotated with reported MIC.
# Test system: Streptococcus pneumoniae
# Method description: Antibacterial activity against erythromycin-resistant Streptococcus pneumoniae AB11 expressing ermB and me/A genes by standard broth microdilution method
# Assay type: functional
Numbers only; they are read as mg/L.

CC[C@H]1OC(=O)[C@H](C)C(=O)[C@H](C)[C@@H](O[C@H]2O[C@@H](C)C[C@@H](N(C)C)[C@@H]2O)[C@](C)(OC)C[C@@H](C)C(=O)[C@H](C)[C@@H](OC(=O)NCCCn2cc(-c3cccc(N)c3)nn2)[C@]1(C)O ... 32

Qu. Entry `CCCc1ccc(-c2cn(CCNC(=O)O[C@@H]3[C@@H](C)C(=O)[C@H](C)C[C@@](C)(OC)[C@H](O[C@H]4O[C@@H](C)C[C@@H](N(C)C)[C@@H]4O)[C@@H](C)C(=O)[C@@H](C)C(=O)O[C@H](CC)[C@@]3(C)O)nn2)cc1` : reported MIC = ?
Ans. 128

Qu. Entry `CC[C@H]1OC(=O)[C@H](C)C(=O)[C@H](C)[C@@H](O[C@H]2O[C@@H](C)C[C@@H](N(C)C)[C@@H]2O)[C@](C)(OC)C[C@@H](C)C(=O)[C@H](C)[C@@H](OC(=O)NCCn2cc(-c3cccc(Cl)c3)nn2)[C@]1(C)O` : reported MIC = ?
Ans. 128

Qu. Entry `CC[C@H]1OC(=O)[C@H](C)C(=O)[C@H](C)[C@@H](O[C@H]2O[C@@H](C)C[C@@H](N(C)C)[C@@H]2O)[C@](C)(OC)C[C@@H](C)C(=O)[C@H](C)[C@@H](OC(=O)NCCCn2cc(-c3cccc(Br)c3)nn2)[C@]1(C)O` : reported MIC = ?
Ans. 32

Qu. Entry `CC[C@H]1OC(=O)[C@H](C)C(=O)[C@H](C)[C@@H](O[C@H]2O[C@@H](C)C[C@@H](N(C)C)[C@@H]2O)[C@](C)(OC)C[C@@H](C)C(=O)[C@H](C)[C@@H](OC(=O)NCCn2cc(-c3ccc(C)cc3)nn2)[C@]1(C)O` : reported MIC = ?
Ans. 256

Qu. Entry `CC[C@H]1OC(=O)[C@H](C)C(=O)[C@H](C)[C@@H](O[C@H]2O[C@@H](C)C[C@@H](N(C)C)[C@@H]2O)[C@](C)(OC)C[C@@H](C)C(=O)[C@H](C)[C@@H](OC(=O)NCCn2cc(-c3ccc(C(C)(C)C)cc3)nn2)[C@]1(C)O` : reported MIC = ?
Ans. 128

Qu. Entry `CC[C@H]1OC(=O)[C@H](C)C(=O)[C@H](C)[C@@H](O[C@H]2O[C@@H](C)C[C@@H](N(C)C)[C@@H]2O)[C@](C)(OC)C[C@@H](C)C(=O)[C@H](C)[C@@H](OC(=O)NCCn2cc(-c3cccc(F)c3)nn2)[C@]1(C)O` : reported MIC = ?
Ans. 128

Qu. Entry `CC[C@H]1OC(=O)[C@H](C)C(=O)[C@H](C)[C@@H](O[C@H]2O[C@@H](C)C[C@@H](N(C)C)[C@@H]2O)[C@](C)(OC)C[C@@H](C)C(=O)[C@H](C)[C@@H](OC(=O)NCCn2cc(-c3ccccc3Cl)nn2)[C@]1(C)O` : reported MIC = ?
Ans. 128
